Test system: 217524-143-R1-J4-PDC spheroids with HUVEC/MSC, viability
Test protocol: Anticancer human tumor 217524-143-R1-J4-PDC patient-derived pancreatic carcinoma cell line growth inhibition [CLK]
Condition: second compound 3.16 µM; first compound 0.1 µM; stronger effect = lower value
So I've got a bunch of compounds here, and I need their viability, T/C values.
Response body: numeric value in %, unit text excluded.

*Q* Please report the measured viability, T/C for COC1C=CCC(C)C(C)S(=O)(=O)NC(=O)c2ccc3c(c2)N(CC2CCC21)CC1(CCCc2cc(Cl)ccc21)CO3 (stereo unspecified) + CN1CCN(c2cc(C(=O)Nc3cc4cc(-c5cnn(C)c5)ccc4cn3)ccn2)CC1
*A* 1.31

*Q* Please report viability, T/C for the following compound: CCCS(=O)(=O)Nc1ccc(F)c(C(=O)c2c[nH]c3ncc(-c4ccc(Cl)cc4)cc23)c1F + CN1CCN(c2cc(C(=O)Nc3cc4cc(-c5cnn(C)c5)ccc4cn3)ccn2)CC1
*A* 0.96

*Q* Dear colleague, please send me the reported viability, T/C for Cn1ncnc1[C@H]1c2n[nH]c(=O)c3cc(F)cc(c23)N[C@@H]1c1ccc(F)cc1 + CN1CCN(c2cc(C(=O)Nc3cc4cc(-c5cnn(C)c5)ccc4cn3)ccn2)CC1 when you can.
*A* 0.48

*Q* Give me measured viability, T/C, please, for this compound: C=C(F)C(=O)N1CCN(c2nc(OCC3CCCN3C)nc3c2CCN(c2cccc4cccc(Cl)c24)C3)CC1CC#N (stereo unspecified) + CNC(=O)c1ccc(Nc2nc(OC3CCCC3)c3c(-c4ccc5nc(C)oc5c4)c[nH]c3n2)c(OC)c1
*A* 40.8

*Q* Entry CC1(C)CCC(CN2CCN(c3ccc(C(=O)NS(=O)(=O)c4ccc(NCC5CCOCC5)c([N+](=O)[O-])c4)c(Oc4cnc5[nH]ccc5c4)c3)CC2)=C(c2ccc(Cl)cc2)C1 + CN1CCN(c2cc(C(=O)Nc3cc4cc(-c5cnn(C)c5)ccc4cn3)ccn2)CC1 needs its viability, T/C filled in; supply it.
*A* 0.61

*Q* Respond only with viability, T/C recorded for CC(CO)NC(=O)c1cc(-c2ccc(Cl)cc2)nn(-c2cnn(C)c2)c1=O (stereo unspecified) + CN1CCN(c2cc(C(=O)Nc3cc4cc(-c5cnn(C)c5)ccc4cn3)ccn2)CC1
*A* 1.27

*Q* Return viability, T/C for the following compound: CC(CO)NC(=O)c1cc(-c2ccc(Cl)cc2)nn(-c2cnn(C)c2)c1=O (stereo unspecified) + CNC(=O)c1ccc(Nc2nc(OC3CCCC3)c3c(-c4ccc5nc(C)oc5c4)c[nH]c3n2)c(OC)c1
*A* 26.2

*Q* State its viability, T/C for this compound: CC(Nc1ccc2c(c1)OCCn1cc(N3C(=O)OCC3C(F)F)nc1-2)C(N)=O (stereo unspecified) + CN1CCN(c2cc(C(=O)Nc3cc4cc(-c5cnn(C)c5)ccc4cn3)ccn2)CC1
*A* 0.64

*Q* Check the records and state viability, T/C for CCN1CCN(Cc2ccc(Nc3ncc(F)c(-c4cc(F)c5nc(C)n(C(C)C)c5c4)n3)nc2)CC1 + CNC(=O)c1ccc(Nc2nc(OC3CCCC3)c3c(-c4ccc5nc(C)oc5c4)c[nH]c3n2)c(OC)c1
*A* 21.1

*Q* Note viability, T/C for the compound shown: COc1cccc2c1C(=O)c1c(O)c3c(c(O)c1C2=O)CC(O)(C(=O)CO)CC3OC1CC(N)C(O)C(C)O1 (stereo unspecified) + CN1CCN(c2cc(C(=O)Nc3cc4cc(-c5cnn(C)c5)ccc4cn3)ccn2)CC1
*A* 0.89

*Q* Return value of viability, T/C for input CC(Nc1ccc2c(c1)OCCn1cc(N3C(=O)OCC3C(F)F)nc1-2)C(N)=O (stereo unspecified) + CNC(=O)c1ccc(Nc2nc(OC3CCCC3)c3c(-c4ccc5nc(C)oc5c4)c[nH]c3n2)c(OC)c1 , no commentary.
*A* 9.35

*Q* Find the measured viability, T/C of CC(=O)O[C@H]1C(=O)[C@@]2(C)[C@H]([C@H](OC(=O)c3ccccc3)[C@]3(O)C[C@H](OC(=O)[C@H](O)[C@@H](NC(=O)c4ccccc4)c4ccccc4)C(C)=C1C3(C)C)[C@]1(OC(C)=O)CO[C@@H]1C[C@@H]2O + CNC(=O)c1ccc(Nc2nc(OC3CCCC3)c3c(-c4ccc5nc(C)oc5c4)c[nH]c3n2)c(OC)c1 and report it.
*A* 26.1

*Q* Find the measured viability, T/C of Nc1ccccc1NC(=O)c1ccc(CNC(=O)OCc2cccnc2)cc1 + CNC(=O)c1ccc(Nc2nc(OC3CCCC3)c3c(-c4ccc5nc(C)oc5c4)c[nH]c3n2)c(OC)c1 and report it.
*A* 30.3

*Q* Fill in viability, T/C for record Cn1ncnc1[C@H]1c2n[nH]c(=O)c3cc(F)cc(c23)N[C@@H]1c1ccc(F)cc1 + CNC(=O)c1ccc(Nc2nc(OC3CCCC3)c3c(-c4ccc5nc(C)oc5c4)c[nH]c3n2)c(OC)c1
*A* 23.6

*Q* Input COC1C=CCC(C)C(C)S(=O)(=O)NC(=O)c2ccc3c(c2)N(CC2CCC21)CC1(CCCc2cc(Cl)ccc21)CO3 (stereo unspecified) + CNC(=O)c1ccc(Nc2nc(OC3CCCC3)c3c(-c4ccc5nc(C)oc5c4)c[nH]c3n2)c(OC)c1 , output reported viability, T/C.
*A* 25.1

*Q* Assign viability, T/C to the following record: COc1cccc2c1C(=O)c1c(O)c3c(c(O)c1C2=O)CC(O)(C(=O)CO)CC3OC1CC(N)C(O)C(C)O1 (stereo unspecified) + CNC(=O)c1ccc(Nc2nc(OC3CCCC3)c3c(-c4ccc5nc(C)oc5c4)c[nH]c3n2)c(OC)c1
*A* 16

---

System: 217524-143-R1-J4-PDC spheroids with HUVEC/MSC, viability
Test protocol: Anticancer human tumor 217524-143-R1-J4-PDC cell line growth inhibition [CLK];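 note: spheroids exposed to agents for seven days before reading; 100% = DMSO vehicle control viability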
Condition: second compound 10 µM; first compound 0.0316 µM; stronger effect = lower value
Source text: A high-throughput screen of multi-cell type tumor spheroids was designed to identify active combinations of […] and targeted small molecules. Complex spheroids include a stromal component modeled by human endothelial cells (HUVEC) and fibroblasts modeled by human mesenchymal stem cells (MSCs). […] Compounds. […] If the clinical Cmax for an agent had not been determined, the highest concentration tested was 10 microM. […]
Kindly supply the reported viability, T/C values for the records listed here.
Report the figure in % without appending any unit label.

*Q* Respond only with viability, T/C recorded for C=CC(=O)N1CCN(c2nc(=O)n(-c3c(C)ccnc3C(C)C)c3nc(-c4c(O)cccc4F)c(F)cc23)C(C)C1 (stereo not drawn) + CN1CCN(c2cc(C(=O)Nc3cc4cc(-c5cnn(C)c5)ccc4cn3)ccn2)CC1
*A* 0.21

*Q* Output measured viability, T/C for this item: CCN1CCN(Cc2ccc(Nc3ncc(F)c(-c4cc(F)c5nc(C)n(C(C)C)c5c4)n3)nc2)CC1 + CN1CCN(c2cc(C(=O)Nc3cc4cc(-c5cnn(C)c5)ccc4cn3)ccn2)CC1
*A* 0.27

*Q* Tell me its viability, T/C given O=c1[nH]cc(F)c(=O)[nH]1 + CN1CCN(c2cc(C(=O)Nc3cc4cc(-c5cnn(C)c5)ccc4cn3)ccn2)CC1 as the entry.
*A* 0.15

---

Test system: 217524-143-R1-J4-PDC spheroids with HUVEC/MSC, viability
Test protocol: Anticancer human tumor 217524-143-R1-J4-PDC cell line growth inhibition [CLK]; active means viability on the fitted dose curve at most 10% of control; inactive means the rest;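 note: spheroids exposed to agents for seven days before reading; 100% = DMSO vehicle control viability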
Condition: second compound 1 µM; first compound 1 µM
Source text: A high-throughput screen of multi-cell type tumor spheroids was designed to identify active combinations of […] and targeted small molecules. Complex spheroids include a stromal component modeled by human endothelial cells (HUVEC) and fibroblasts modeled by human mesenchymal stem cells (MSCs). […] Compounds. […] If the clinical Cmax for an agent had not been determined, the highest concentration tested was 10 microM. […]
Mark one answer only. Choices: TRUE = active, FALSE = inactive

*Q* Tell me the recorded outcome of this test for CC(CO)NC(=O)c1cc(-c2ccc(Cl)cc2)nn(-c2cnn(C)c2)c1=O (stereo not drawn) + CN1CCN(c2cc(C(=O)Nc3cc4cc(-c5cnn(C)c5)ccc4cn3)ccn2)CC1 .
*A* TRUE

*Q* Returns: the outcome recorded for CC1COCCN1c1cc(C2(S(C)(=N)=O)CC2)nc(-c2ccnc3[nH]ccc23)n1 (stereo not drawn) + CNC(=O)c1ccc(Nc2nc(OC3CCCC3)c3c(-c4ccc5nc(C)oc5c4)c[nH]c3n2)c(OC)c1 in this assay.
*A* FALSE

*Q* Could you kindly confirm the outcome this assay logged for C=CC(=O)N1CCN(c2nc(=O)n(-c3c(C)ccnc3C(C)C)c3nc(-c4c(O)cccc4F)c(F)cc23)C(C)C1 (stereo not drawn) + CNC(=O)c1ccc(Nc2nc(OC3CCCC3)c3c(-c4ccc5nc(C)oc5c4)c[nH]c3n2)c(OC)c1 ?
*A* FALSE

*Q* Field: outcome | Entry: CC(CO)NC(=O)c1cc(-c2ccc(Cl)cc2)nn(-c2cnn(C)c2)c1=O (stereo not drawn) + CNC(=O)c1ccc(Nc2nc(OC3CCCC3)c3c(-c4ccc5nc(C)oc5c4)c[nH]c3n2)c(OC)c1
*A* FALSE

*Q* Outcome logged for CC1(C)CCC(CN2CCN(c3ccc(C(=O)NS(=O)(=O)c4ccc(NCC5CCOCC5)c([N+](=O)[O-])c4)c(Oc4cnc5[nH]ccc5c4)c3)CC2)=C(c2ccc(Cl)cc2)C1 + CNC(=O)c1ccc(Nc2nc(OC3CCCC3)c3c(-c4ccc5nc(C)oc5c4)c[nH]c3n2)c(OC)c1 in this assay:
*A* FALSE

*Q* Hi team, can someone confirm the assay call for CCN1CCN(Cc2ccc(Nc3ncc(F)c(-c4cc(F)c5nc(C)n(C(C)C)c5c4)n3)nc2)CC1 + CNC(=O)c1ccc(Nc2nc(OC3CCCC3)c3c(-c4ccc5nc(C)oc5c4)c[nH]c3n2)c(OC)c1 ?
*A* FALSE

*Q* Which outcome was entered for the compound COc1ccc([C@@H](O)c2cc(-c3ncnc4cc(N5CCOCC5)ccc34)c(F)cc2Cl)nn1 + CNC(=O)c1ccc(Nc2nc(OC3CCCC3)c3c(-c4ccc5nc(C)oc5c4)c[nH]c3n2)c(OC)c1 in this test?
*A* FALSE

*Q* Recorded test call requested for Nc1ccccc1NC(=O)c1ccc(CNC(=O)OCc2cccnc2)cc1 + CNC(=O)c1ccc(Nc2nc(OC3CCCC3)c3c(-c4ccc5nc(C)oc5c4)c[nH]c3n2)c(OC)c1
*A* FALSE
